# run-description: Stability on incubation with human liver microsomes (HLM)
# Type: in vitro ADME
# test-context: percentage left after incubation with human liver microsomes for 30 minutes

compound	unit-abbrev	HLM % Remaining@ 30 Min
Cc1nc(NC(c2ccc(Cl)c(Cl)c2)c2ccc3cccnc3c2O)c(Cl)cc1Cl (stereo not shown)	%	100
Oc1c(C(Nc2ncc(C(F)(F)F)cc2F)c2ccc(Cl)cc2Cl)ccc2cccnc12 (stereo not shown)	%	100
Cc1cc(NC(c2ccc(C(F)(F)F)c(F)c2)c2ccc3cccnc3c2O)ncc1Cl (stereo not shown)	%	86
Oc1c(C(Nc2ccc(C(F)(F)F)cn2)c2ccc(Cl)cc2Cl)ccc2cccnc12 (stereo not shown)	%	100

###

# Test system: A549 cells
# run-description: A549 Cell Proliferation Assay (MTT)
# Format: cell-based
# test-context: Homo sapiens, A549; MTT, 72 hours; read-out: IC50 Value (μM) A549 Cells

compound	unit-abbrev	IC50
Cc1cccc(NC(c2ccc(Cl)c(Cl)c2)c2cc(Cl)c3cccnc3c2O)n1 (stereo not drawn)	µM	0.17
Cc1cc(Cl)ccc1NC(c1ccc(Cl)c(Cl)c1)c1ccc2cccnc2c1O (stereo not drawn)	µM	0.19
Cc1cccc(NC(c2cc(Cl)ccc2Cl)c2ccc3ccc(C)nc3c2O)n1 (stereo not drawn)	µM	0.16

###

Overview of recorded IC50 for various compounds
# Tested on: H1975 cells
# run-description: H1975 Cell Proliferation Assay (MTT)
# Format: cell-based
# test-context: Homo sapiens, NCI-H1975, 72 h, read-out: IC50 Value (μM) H1975 Cells
quantity-measured: IC50 (µM)

compound	obs-value
Oc1c(C(Nc2cc(Cl)c(Cl)cn2)c2cc(Cl)ccc2Cl)ccc2cccnc12 (centres unmarked) [AD4-13179]	0.14
Cc1cc(NC(c2ccc(C(F)(F)F)cc2)c2ccc3cccnc3c2O)ncc1Cl (centres unmarked) [AD4-13121]	0.33
Oc1c(C(Nc2ncc(Cl)cc2F)c2cccc(C(F)(F)F)c2)ccc2cccnc12 (centres unmarked) [AD4-13145]	1.7
Oc1c(C(Nc2ncc(F)cc2F)c2cc(Cl)cc(Cl)c2Cl)ccc2cccnc12 (centres unmarked) [AD4-13181]	0.58
Cc1cc(Cl)cnc1NC(c1ccc2cccnc2c1O)c1c(F)cccc1Cl (centres unmarked) [AD4-13135]	0.21
Oc1c(C(Nc2ncc(F)cc2F)c2ccc(F)cc2Cl)ccc2cccnc12 (centres unmarked) [AD4-13146]	0.24
Oc1c(C(Nc2ccc(C(F)(F)F)cn2)c2ccc(Cl)c(C(F)(F)F)c2)ccc2cccnc12 (centres unmarked) [AD4-13032]	0.21
Oc1c(C(Nc2cc(Cl)c(Cl)cn2)c2ccc(F)cc2Cl)ccc2cccnc12 (centres unmarked) [AD4-13185]	0.23

###

# Test system: MDBK line
# run-description: MTT Cell Proliferation Assay, MDBK line
# Assay type: cell-based, bovine
# test-context: Bos taurus, MDBK, 72 h; second value of A431/MDBK pair; read-out: MTT-72 h MDBK
Overview of recorded IC50 for various compounds

compound	unit-abbrev	IC50
CC(C)Oc1ccc(C(Nc2ccccn2)c2ccc3cccnc3c2O)cc1 (stereo not drawn)	µM	5.19
COc1ccc(C(Nc2ccccn2)c2ccc3cccnc3c2O)cc1OC (stereo not drawn)	µM	5.43
Cc1ccc2ccc(C(Nc3ccccn3)c3cccc(O)c3)c(O)c2n1 (stereo not drawn)	µM	32.4
Oc1c(C(Nc2ccccn2)c2ccc(C(F)(F)F)cc2)ccc2cccnc12 (stereo not drawn)	µM	0.53
Oc1c(C(Nc2cccnc2)c2ccc(C(F)(F)F)cc2)ccc2cccnc12 (stereo not drawn)	µM	36.2
Oc1c(C(Nc2ccccn2)c2cccnc2)cc(Cl)c2cccnc12 (stereo not drawn)	µM	5.36
Oc1c(C(Nc2cccc(Cl)c2)c2ccncc2)ccc2cccnc12 (stereo not drawn)	µM	3.72
CON1CCN(C(c2cccnc2)c2ccc3cccnc3c2O)CC1 (stereo not drawn)	µM	11.4
CCOc1ccc(C(Nc2ccccn2)c2ccc3ccc(C)nc3c2O)cc1OC (stereo not drawn)	µM	13

###

# assayed-system: EGFR (Homo sapiens)
# Construct: endogenous in cells; host or cells: A431 cells (ATCC CRL-1555)
# Sequence (P00533 25-1210): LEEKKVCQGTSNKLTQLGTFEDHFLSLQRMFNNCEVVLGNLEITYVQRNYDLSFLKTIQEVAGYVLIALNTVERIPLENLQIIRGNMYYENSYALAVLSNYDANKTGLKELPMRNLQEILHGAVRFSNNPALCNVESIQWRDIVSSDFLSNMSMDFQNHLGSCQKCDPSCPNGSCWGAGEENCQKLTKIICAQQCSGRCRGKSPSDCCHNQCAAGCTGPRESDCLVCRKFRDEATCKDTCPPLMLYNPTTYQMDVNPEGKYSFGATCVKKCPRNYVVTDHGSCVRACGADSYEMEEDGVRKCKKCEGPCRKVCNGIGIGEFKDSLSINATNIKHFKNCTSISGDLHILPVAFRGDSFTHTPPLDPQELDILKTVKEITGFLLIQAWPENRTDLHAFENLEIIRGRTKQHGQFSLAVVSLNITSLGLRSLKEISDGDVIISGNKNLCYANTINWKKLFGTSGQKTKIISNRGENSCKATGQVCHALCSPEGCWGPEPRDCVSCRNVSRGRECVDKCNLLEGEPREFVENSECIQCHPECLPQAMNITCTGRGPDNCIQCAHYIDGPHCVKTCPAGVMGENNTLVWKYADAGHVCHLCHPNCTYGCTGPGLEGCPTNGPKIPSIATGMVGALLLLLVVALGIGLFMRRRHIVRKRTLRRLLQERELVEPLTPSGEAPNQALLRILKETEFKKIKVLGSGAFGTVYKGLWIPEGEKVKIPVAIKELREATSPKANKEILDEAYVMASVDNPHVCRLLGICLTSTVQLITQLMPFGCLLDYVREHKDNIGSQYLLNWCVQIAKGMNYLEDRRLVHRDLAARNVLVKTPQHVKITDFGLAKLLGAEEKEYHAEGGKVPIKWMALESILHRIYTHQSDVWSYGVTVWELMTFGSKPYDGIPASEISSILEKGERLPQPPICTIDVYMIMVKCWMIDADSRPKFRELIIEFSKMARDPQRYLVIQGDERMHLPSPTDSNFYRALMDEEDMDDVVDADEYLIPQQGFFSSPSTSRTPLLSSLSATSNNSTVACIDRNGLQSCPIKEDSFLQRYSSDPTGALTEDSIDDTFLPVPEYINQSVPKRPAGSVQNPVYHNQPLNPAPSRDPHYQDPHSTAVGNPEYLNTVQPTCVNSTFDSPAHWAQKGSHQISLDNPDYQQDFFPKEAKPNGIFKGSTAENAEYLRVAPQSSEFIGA
# run-description: EGFR in-cell Western (ICW) screening protocol
# Assay type: cell-based
# Set-up: unit not given here
# test-context: re-test
# Experimental: The following example describes general EGFR in-cell Western (ICW) screening protocol. Two cell plates were prepared for each compound plate. Serum Starvation: The cells were serum starved prior to compound addition. […] The cell plates were incubated at 37° C./5% CO2 for 2 hours. Prepared compound plates were stored at RT prior to use and at 4° C. long term. […] Data Analysis: The % of Maximum and % Inhibition values were calculated as follows. […]
True if ICW Re-Test is below 40. False if not; exact matches included in False.

compound	class-label
Cc1ccc2ccc(C(Nc3ccccn3)c3cccnc3)c(O)c2n1 (stereo not drawn)	True
COc1ccc(C(NC(=O)c2cccnc2)c2cc(Cl)c3cccnc3c2O)cc1OC (stereo not drawn)	False
CCOc1cc(C(Nc2cc(C)ccn2)c2ccc3cccnc3c2O)ccc1OC (stereo not drawn)	True
Cc1ccnc(NC(c2ccc3cccnc3c2O)c2sccc2C)c1 (stereo not drawn)	False
Cc1cccc(NC(c2ccncc2)c2ccc3cccnc3c2O)n1 (stereo not drawn)	False
CCOc1cc(C(Nc2ccccn2)c2ccc3cccnc3c2O)ccc1OC (stereo not drawn)	True
CCOc1cc(C(NC(=O)C(C)(C)C)c2cc([N+](=O)[O-])c3cccnc3c2O)ccc1O (stereo not drawn)	False
Cc1cccc(NC(c2cccc(C)n2)c2ccc3ccc(C)nc3c2O)n1 (stereo not drawn)	True
Cc1cccc(NC(c2ccc(F)cc2)c2ccc3cccnc3c2O)n1 (stereo not drawn)	False

###

# assayed-system: EGFR (Homo sapiens)
# Construct: endogenous in cells; host or cells: A431 cells (ATCC CRL-1555)
# run-description: EGFR in-cell Western (ICW) screening protocol
# Assay type: cell-based
# Parameters: unit not given here
# test-context: re-test
Overview of recorded ICW Re-Test for various molecules

molecule	ICW Re-Test
Oc1cc2cccnc2cc1C(Nc1ccccn1)c1cccs1 (stereo not drawn)	24.99
Oc1c(C(Nc2ccc(OC(F)F)cc2)c2ccccn2)ccc2cccnc12 (stereo not drawn)	36.82
Oc1c(C(Nc2ccccn2)c2ccc(Br)cc2)ccc2cccnc12 (stereo not drawn)	15.3
COc1ccc(C)cc1NC(c1ccc(F)cc1)c1ccc2cccnc2c1O (stereo not drawn)	32.53
Oc1c(C(Nc2ccccc2)c2ccccn2)ccc2cccnc12 (stereo not drawn)	21.62
Cc1cccc(NC(c2ccccc2C)c2ccc3ccc(C)nc3c2O)n1 (stereo not drawn)	41.06
CC(C)C(=O)NC(c1cccs1)c1cc([N+](=O)[O-])c2cccnc2c1O (stereo not drawn)	99.56
Cc1ccc(NC(c2ccccc2O)c2ccc3cccnc3c2O)nc1 (stereo not drawn)	48.57
Cc1cccc(NC(c2ccc(C)s2)c2ccc3ccc(C)nc3c2O)n1 (stereo not drawn)	43.94

###

# Test system: MDBK line
# run-description: MTT Cell Proliferation Assay, MDBK line
# Type: cell-based, bovine
# test-context: Bos taurus, MDBK, 72 h; second value of A431/MDBK pair; read-out: MTT-72 h MDBK
quantity-measured: IC50 (µM)

compound	assayed-system	quantity-measured	unit-abbrev	obs-value
Cc1cccc(NC(c2ccc(F)cc2)c2ccc3cccnc3c2O)n1 (stereo not shown)	MDBK line	IC50	µM	5.18
Cc1cccc(NC(c2cccc(C)n2)c2ccc3ccc(C)nc3c2O)n1 (stereo not shown)	MDBK line	IC50	µM	19.7
CCOc1cc(C(NC(=O)C(C)(C)C)c2cc([N+](=O)[O-])c3cccnc3c2O)ccc1O (stereo not shown)	MDBK line	IC50	µM	6.05
CCOc1ccc(NC(c2ccccn2)c2ccc3cccnc3c2O)cc1 (stereo not shown)	MDBK line	IC50	µM	11.2

###

# assayed-system: EGFR (Homo sapiens)
# Construct: endogenous in cells; host or cells: A431 cells (ATCC CRL-1555)
# run-description: EGFR in-cell Western (ICW) screening protocol
# Assay type: cell-based
# Set-up: unit not given here
# test-context: initial screen
# Protocol: The following example describes general EGFR in-cell Western (ICW) screening protocol. Two cell plates were prepared for each compound plate. Serum Starvation: The cells were serum starved prior to compound addition. […] The cell plates were incubated at 37° C./5% CO2 for 2 hours. Prepared compound plates were stored at RT prior to use and at 4° C. long term. […] Data Analysis: The % of Maximum and % Inhibition values were calculated as follows. […]
Overview of recorded ICW Screen for various compounds

compound	ICW Screen
Cc1cccc(NC(c2ccccc2C)c2ccc3ccc(C)nc3c2O)n1 (stereo not drawn)	37.03
Oc1c(C(Nc2ccccn2)c2cccnc2)cc(Cl)c2cccnc12 (stereo not drawn)	37.33
CCOc1ccc(C(Nc2ccccn2)c2cc(Cl)c3cccnc3c2O)cc1 (stereo not drawn) [compound 10953]	30.86
C=CCOc1ccc(C(Nc2ccccn2)c2ccc3cccnc3c2O)cc1 (stereo not drawn)	43.1
Oc1cccnc1NC(c1ccccc1F)c1ccc2cccnc2c1O (stereo not drawn)	12.86
O=[N+]([O-])c1cccc(NC(c2ccco2)c2ccc3cccnc3c2O)c1 (stereo not drawn)	32.48
CCOc1ccc(C(Nc2ccccn2)c2ccc3cccnc3c2O)cc1O (stereo not drawn)	61.2
CCN1CCN(C(c2cccnc2)c2ccc3cccnc3c2O)CC1 (stereo not drawn)	31.84
Cc1ccc(C(Nc2cccc(C)n2)c2ccc3cccnc3c2O)cc1 (stereo not drawn)	35.84
COc1ccc(C(Nc2ccccn2)c2ccc3ccc(C)nc3c2O)cc1C (stereo not drawn)	27.02
Oc1c(C(Nc2cccnc2)c2cccs2)ccc2cccnc12 (stereo not drawn)	80.77
Oc1c(C(Nc2cccc(Cl)c2)c2cccnc2)ccc2cccnc12 (stereo not drawn)	44.4
Cc1cccc(NC(c2ccc(C)s2)c2ccc3ccc(C)nc3c2O)n1 (stereo not drawn)	49.39
CCOc1ccc(C(Nc2ccccn2)c2cc(Cl)c3cccnc3c2O)cc1 (stereo not drawn) [compound 10101]	44.01
COc1ccc(Br)cc1C(Nc1ccccn1)c1cc(Cl)c2cccnc2c1O (stereo not drawn)	15.91
Oc1c(C(Nc2ccccn2)c2ccc(C(F)(F)F)cc2)ccc2cccnc12 (stereo not drawn)	23.17
COc1cc(C(Nc2ccccn2)c2cc(Cl)c3cccnc3c2O)cc(Br)c1O (stereo not drawn)	62.13
CCOc1ccc(C(Nc2cc(C)ccn2)c2ccc3cccnc3c2O)cc1OC (stereo not drawn)	44.27

The measurements presented in this section are drawn from patent US9073858B2.
